Test system: SARS-CoV-2
Protocol: SARS-CoV-2 inhibition, cell viability assay (CellTiter-Glo) in VERO-E6 cells enriched for ACE-2
Assay type: cell-based
Reported conditions: Table I, positive controls; VERO-E6 cells enriched for ACE-2 plus SARS-CoV-2; read-out: IC50
Peptide text beside a SMILES is read from it. * marks the point of attachment. Cbz = O=C(OCc1ccccc1)*; CH2F = FC*
Quantity kind: pIC50
Just so you know, pIC50 here is -log10 of the concentration in molar units; reply with that number alone.

Q: For the record CC(C)C[C@H](NC(=O)OCc1ccccc1)C(=O)N[C@@H](CC(C)C)C(=O)N[C@@H](Cc1ccc(O)cc1)C(=O)CF [Calpain Inhibitor IV, reference compound] (Cbz-Leu-Leu-Tyr-CH2F) , what value of pIC50 is listed for SARS-CoV-2?
Ans: 6.92
